# Species on record: Rattus norvegicus
# test: DrugMatrix - Regimen: Daily Repeat
# Format: toxicity, organism-based, Sprague-Dawley
# Parameters: regimen Daily Repeat, gender Male, age 6-8 weeks
# condition-summary: in vivo, po, 0 mg/kg, 120 h, tissue Blood, route oral GAVAGE, dose level Control, time 5 day, vehicle 100 % WATER
measured-property: PLATELET COUNT (x10E3/uL)
Give your result in x10E3/uL as a bare value.

These solved cases illustrate the format of a correct answer.
CCN(CC)CCNC(=O)c1cc(S(C)(=O)=O)ccc1OC [TIAPRIDE] :: 1337.67
CN(C)CC[C@@H](c1ccc(Cl)cc1)c1ccccn1 :: 1223.5
CC(C)NCC(O)c1ccc(NS(C)(=O)=O)cc1 (stereo not given) :: 1204
Cc1ccc(NC(=O)c2ccc(CN3CCN(C)CC3)cc2)cc1Nc1nccc(-c2cccnc2)n1 :: 1337.67
CN1[C@@H]2CC[C@H]1C[C@@H](OC(=O)C(CO)c1ccccc1)C2 (stereo not given in full) :: 1122.33

Inquiry: Find the recorded PLATELET COUNT belonging to Cn1c(=O)c2[nH]cnc2n(C)c1=O.O and report it.
Reply text: 1281.17

Inquiry: Quick one: PLATELET COUNT of O.O.O.O.O.O.[Cl-].[Cl-].[Sr+2] [STRONTIUM CHLORIDE HEXAHYDRATE] ?
Reply text: 1337.67

Inquiry: So what does the record say about PLATELET COUNT for CC(C)(C)CC(C)(C)c1ccc(OCCOCC[N+](C)(C)Cc2ccccc2)cc1.[Cl-] [BENZETHONIUM CHLORIDE] ?
Reply text: 1198

Inquiry: May I ask what PLATELET COUNT has been recorded for Oc1cccc(O)c1O ?
Reply text: 1190.6

Inquiry: Consider the compound NNc1nncc2ccccc12 [HYDRALAZINE] and give its measured PLATELET COUNT.
Reply text: 1198
